Test system: NK-YS (IL-2 2.5 ng/mL);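 also: normalised to DMSO-only wells as negative and benzethonium chloride as positive control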
protocolNotes: percent inhibition of viability; higher = more inhibition
testConditions: 72 h; 0.1 nM
Here, each record is paired with measured percent inhibition of viability data.
Give just the numeric value; % need not be written.

Below, each entry is followed by its recorded percent inhibition of viability result.
COc1cc2c(Nc3ccc(Cl)c(Cl)c3F)ncnc2cc1OC[C@@H]1C[C@@H]2CN(C)C[C@@H]2C1 [XL-647] (max concentration tested 1000 nM) ... -8.01
CCS(=O)(=O)c1cccc(-c2cc(C(=O)NC3CCN(C)CC3)c(C)c3[nH]c4ncc(C)cc4c23)c1 [TAK-901] (max concentration tested 1000 nM) ... -2.75
COc1ncc(-c2ccc3nccc(-c4ccnnc4)c3c2)cc1NS(=O)(=O)c1ccc(F)cc1F [Omipalisib] (max concentration tested 1000 nM) ... -0.6
O=C(c1ccc(F)c(F)c1Nc1ccc(I)cc1F)N1CC(O)([C@@H]2CCCCN2)C1 [Cobimetinib] (max concentration tested 1000 nM) ... -1.72

Noted for Cc1c2oc3c(C)ccc(C(=O)N[C@@H]4C(=O)N[C@H](C(C)C)C(=O)N5CCC[C@H]5C(=O)N(C)CC(=O)N(C)[C@@H](C(C)C)C(=O)O[C@@H]4C)c3nc-2c(C(=O)N[C@@H]2C(=O)N[C@H](C(C)C)C(=O)N3CCC[C@H]3C(=O)N(C)CC(=O)N(C)[C@@H](C(C)C)C(=O)O[C@@H]2C)c(N)c1=O [Dactinomycin] (max concentration tested 1000 nM) : its percent inhibition of viability reads 5.62

Noted for CO[C@H]1C[C@@H]2CC[C@@H](C)[C@@](O)(O2)C(=O)C(=O)N2CCCC[C@H]2C(=O)O[C@H]([C@H](C)C[C@@H]2CC[C@@H](OC(=O)C(C)(CO)CO)[C@H](OC)C2)CC(=O)[C@H](C)/C=C(\C)[C@@H](O)[C@@H](OC)C(=O)[C@H](C)C[C@H](C)/C=C/C=C/C=C/1C [Temsirolimus] (max concentration tested 100 nM) : its percent inhibition of viability reads 16.2

Noted for Cn1c(=O)c(F)c(Nc2ccc(I)cc2F)c2c(=O)n(C[C@@H](O)CO)cnc21 [TAK-733] (max concentration tested 1000 nM) : its percent inhibition of viability reads -2.42
